test system: Candida; assay: In vitro MIC, NCCLS M27A, Candida species; format: cell-based; design: unit not given beside the values; details: Candida albicans strain Y-01-19
The threshold is 0.5. Values of MIC, Candida albicans Y-01-19 beneath it are tagged MET; values meeting or exceeding it are tagged NOT MET.

>  <molecule>
O=c1n(-c2ccc(N3CCN(c4ccc(Cl)cc4)CC3)cc2)cnn1CC(O)(Cn1cncn1)c1ccc(F)cc1F (stereo not drawn)

>  <target.entity>
Candida

>  <label.value>
MET

$$$$
>  <molecule>
O=c1n(-c2ccc(N3CCN(c4cc(Cl)cc(Cl)c4)CC3)cc2)cnn1CC(O)(Cn1cncn1)c1ccc(F)cc1F (stereo not drawn)

>  <target.entity>
Candida

>  <label.value>
MET

$$$$
>  <molecule>
Cc1nn([C@H](C)[C@@](O)(Cn2cncn2)c2ccc(F)cc2F)c(=O)n1-c1ccc(N2CCN(c3cc(Cl)cc(Cl)c3)CC2)cc1

>  <target.entity>
Candida

>  <label.value>
NOT MET

$$$$
>  <molecule>
COc1ccc(N2CCN(c3ccc(-n4cnn([C@H](C)[C@@](O)(Cn5cncn5)c5ccc(F)cc5F)c4=O)cc3)CC2)cc1

>  <target.entity>
Candida

>  <label.value>
NOT MET

$$$$
>  <molecule>
Cc1ccc(N2CCN(c3ccc(-n4cnn([C@H](C)[C@](O)(Cn5cncn5)c5ccc(F)cc5F)c4=O)cc3)CC2)cc1Cl

>  <target.entity>
Candida

>  <label.value>
MET

$$$$

###

>  <compound>
Cc1ccc(N2CCN(c3ccc(-n4cnn(CC(O)(Cn5cncn5)c5ccc(F)cc5F)c4=O)cc3)CC2)cc1Cl (stereo not shown)

>  <melting point>
189 to 201 °C

$$$$
>  <compound>
COC(=O)Cc1ccc(N2CCN(c3ccc(-n4cnn(CC(O)(Cn5cncn5)c5ccc(F)cc5F)c4=O)cc3)CC2)cc1 (stereo not shown)

>  <melting point>
66 to 69 °C

$$$$
>  <compound>
COc1ccccc1N1CCN(c2ccc(-n3cnn(CC(O)(Cn4cncn4)c4ccc(F)cc4F)c3=O)cc2)CC1 (stereo not shown)

>  <melting point>
95 to 97 °C

$$$$
>  <compound>
CCc1ccccc1N1CCN(c2ccc(-n3cnn(CC(O)(Cn4cncn4)c4ccc(F)cc4F)c3=O)cc2)CC1 (stereo not shown)

>  <melting point>
148 to 150 °C

$$$$
>  <compound>
O=c1n(-c2ccc(N3CCN(c4ccc(F)c(F)c4)CC3)cc2)cnn1CC(O)(Cn1cncn1)c1ccc(F)cc1F (stereo not shown)

>  <melting point>
117 to 118 °C

$$$$
>  <compound>
COc1ccc(N2CCN(c3ccc(-n4cnn(CC(O)(Cn5cncn5)c5ccc(F)cc5F)c4=O)cc3)CC2)cc1 (stereo not shown)

>  <melting point>
183 to 186 °C

$$$$
>  <compound>
O=C(O)CCc1ccc(N2CCN(c3ccc(-n4cnn(CC(O)(Cn5cncn5)c5ccc(F)cc5F)c4=O)cc3)CC2)cc1 (stereo not shown)

>  <melting point>
235 to 239 °C

$$$$

###

Recorded MIC, Candida albicans Y-01-19 by entry
test system: Candida; experiment: In vitro MIC, NCCLS M27A, Candida species; type: cell-based; set-up: unit not given beside the values; conditions: Candida albicans strain Y-01-19
metric: MIC, Candida albicans Y-01-19

>  <compound>
C[C@@H](n1ncn(-c2ccc(N3CCN(c4ccccc4F)CC3)cc2)c1=O)[C@](O)(Cn1cncn1)c1ccc(F)cc1F

>  <value.observed>
0.12

$$$$
>  <compound>
O=c1n(-c2ccc(N3CCN(c4ccc(F)c(F)c4F)CC3)cc2)cnn1CC(O)(Cn1cncn1)c1ccc(F)cc1F (stereo not drawn)

>  <value.observed>
0.12

$$$$
>  <compound>
C[C@@H](n1ncn(-c2ccc(N3CCN(c4ccc([N+](=O)[O-])cc4[N+](=O)[O-])CC3)cc2)c1=O)[C@](O)(Cn1cncn1)c1ccc(F)cc1F

>  <value.observed>
0.50

$$$$

###

Recorded melting point by entry

>  <molecule>
O=c1n(-c2ccc(N3CCN(c4ccc(CCO)cc4)CC3)cc2)cnn1CC(O)(Cn1cncn1)c1ccc(F)cc1F (stereo not shown) [Compound 95]

>  <melting point>
114 to 115 °C

$$$$
>  <molecule>
O=c1n(-c2ccc(N3CCN(c4cccc(C(F)(F)F)c4)CC3)cc2)cnn1CC(O)(Cn1cncn1)c1ccc(F)cc1F (stereo not shown) [Compound 51]

>  <melting point>
166 to 168 °C

$$$$
>  <molecule>
O=c1n(-c2ccc(N3CCN(c4ccc(F)c(Cl)c4)CC3)cc2)cnn1CC(O)(Cn1cncn1)c1ccc(F)cc1F (stereo not shown) [Compound 53]

>  <melting point>
182 to 185 °C

$$$$
>  <molecule>
Cc1ccc(N2CCN(c3ccc(-n4cnn(CC(O)(Cn5cncn5)c5ccc(F)cc5F)c4=O)cc3)CC2)cc1 (stereo not shown) [Compound 39]

>  <melting point>
146 to 148 °C

$$$$

###

Recorded MIC, H. capsulatum by entry
test system: Histoplasma capsulatum; format: cell-based

>  <compound>
C[C@@H](n1ncn(-c2ccc(N3CCN(c4ccccc4)CC3)cc2)c1=O)[C@](O)(Cn1cncn1)c1ccc(F)cc1F [Compound 5]

>  <limit.qualifier>
<

>  <MIC, H. capsulatum, µg/mL>
0.03

$$$$
>  <compound>
Cc1nn([C@H](C)[C@@](O)(Cn2cncn2)c2ccc(F)cc2F)c(=O)n1-c1ccc(N2CCN(c3cc(Cl)cc(Cl)c3)CC2)cc1 [Compound 30]

>  <limit.qualifier>
=

>  <MIC, H. capsulatum, µg/mL>
0.5

$$$$
>  <compound>
C[C@@H](n1ncn(-c2ccc(N3CCN(c4ccc(F)cc4)CC3)cc2)c1=O)[C@@](O)(Cn1cncn1)c1ccc(F)cc1F [Compound 12]

>  <limit.qualifier>
<

>  <MIC, H. capsulatum, µg/mL>
0.03

$$$$
>  <compound>
COc1ccccc1N1CCN(c2ccc(-n3cnn(CC(O)(Cn4cncn4)c4ccc(F)cc4F)c3=O)cc2)CC1 (stereo not drawn) [Compound 42]

>  <limit.qualifier>
=

>  <MIC, H. capsulatum, µg/mL>
0.05

$$$$
>  <compound>
C[C@@H](n1ncn(-c2ccc(N3CCN(c4cccc(C(F)(F)F)c4)CC3)cc2)c1=O)[C@](O)(Cn1cncn1)c1ccc(F)cc1F [Compound 9]

>  <limit.qualifier>
=

>  <MIC, H. capsulatum, µg/mL>
0.06

$$$$
>  <compound>
O=c1n(-c2ccc(N3CCN(c4ccc(O)cc4)CC3)cc2)cnn1CC(O)(Cn1cncn1)c1ccc(F)cc1F (stereo not drawn) [Compound 44]

>  <limit.qualifier>
=

>  <MIC, H. capsulatum, µg/mL>
1.56

$$$$

###

system: Candida; assay: In vitro MIC, NCCLS M27A, Candida species; format: cell-based; set-up: unit not given beside the values; settings: C. glabrata strain 90030

>  <molecule>
CCc1ccccc1N1CCN(c2ccc(-n3cnn(CC(O)(Cn4cncn4)c4ccc(F)cc4F)c3=O)cc2)CC1 (centres unmarked)

>  <limit.qualifier>
=

>  <MIC, C. glabrata 90030>
0.50

$$$$
>  <molecule>
Cc1ccc(N2CCN(c3ccc(-n4cnn([C@H](C)[C@@](O)(Cn5cncn5)c5ccc(F)cc5F)c4=O)cc3)CC2)cc1Cl

>  <limit.qualifier>
=

>  <MIC, C. glabrata 90030>
1.00

$$$$
>  <molecule>
Cc1nn(CC(O)(Cn2cncn2)c2ccc(F)cc2F)c(=O)n1-c1ccc(N2CCN(c3ccc(F)cc3)CC2)cc1 (centres unmarked)

>  <limit.qualifier>
=

>  <MIC, C. glabrata 90030>
3.12

$$$$
>  <molecule>
COc1ccc(N2CCN(c3ccc(-n4cnn(CC(O)(Cn5cncn5)c5ccc(F)cc5F)c4=O)cc3)CC2)cc1 (centres unmarked)

>  <limit.qualifier>
=

>  <MIC, C. glabrata 90030>
0.80

$$$$
>  <molecule>
COc1ccc(F)cc1N1CCN(c2ccc(-n3cnn(CC(O)(Cn4cncn4)c4ccc(F)cc4F)c3=O)cc2)CC1 (centres unmarked)

>  <limit.qualifier>
=

>  <MIC, C. glabrata 90030>
1.00

$$$$
>  <molecule>
Cc1ccc(N2CCN(c3ccc(-n4cnn([C@H](C)[C@@](O)(Cn5cncn5)c5ccc(F)cc5F)c4=O)cc3)CC2)c(C)c1

>  <limit.qualifier>
=

>  <MIC, C. glabrata 90030>
2.00

$$$$
>  <molecule>
CCc1ccccc1N1CCN(c2ccc(-n3c(C)nn([C@H](C)[C@@](O)(Cn4cncn4)c4ccc(F)cc4F)c3=O)cc2)CC1

>  <limit.qualifier>
=

>  <MIC, C. glabrata 90030>
2.00

$$$$
>  <molecule>
O=c1n(-c2ccc(N3CCN(c4ccc(O)cc4)CC3)cc2)cnn1CC(O)(Cn1cncn1)c1ccc(F)cc1F (centres unmarked)

>  <limit.qualifier>
=

>  <MIC, C. glabrata 90030>
6.25

$$$$
>  <molecule>
COc1ccc(N2CCN(c3ccc(-n4cnn([C@H](C)[C@@](O)(Cn5cncn5)c5ccc(F)cc5F)c4=O)cc3)CC2)cc1

>  <limit.qualifier>
=

>  <MIC, C. glabrata 90030>
2.00

$$$$
>  <molecule>
O=c1n(-c2ccc(N3CCN(c4ccccc4)CC3)cc2)cnn1CC(O)(Cn1cncn1)c1ccc(F)cc1F (centres unmarked)

>  <limit.qualifier>
=

>  <MIC, C. glabrata 90030>
0.10

$$$$
>  <molecule>
O=c1n(-c2ccc(N3CCN(c4ccccc4F)CC3)cc2)cnn1CC(O)(Cn1cncn1)c1ccc(F)cc1F (centres unmarked)

>  <limit.qualifier>
=

>  <MIC, C. glabrata 90030>
1.00

$$$$
>  <molecule>
C[C@@H](n1ncn(-c2ccc(N3CCN(c4ccc(Cl)cc4)CC3)cc2)c1=O)[C@@](O)(Cn1cncn1)c1ccc(F)cc1F

>  <limit.qualifier>
=

>  <MIC, C. glabrata 90030>
0.50

$$$$
>  <molecule>
Cc1ccc(N2CCN(c3ccc(-n4cnn([C@H](C)[C@](O)(Cn5cncn5)c5ccc(F)cc5F)c4=O)cc3)CC2)c(C)c1

>  <limit.qualifier>
>

>  <MIC, C. glabrata 90030>
16

$$$$
>  <molecule>
O=c1n(-c2ccc(N3CCN(c4cccc(Cl)c4)CC3)cc2)cnn1CC(O)(Cn1cncn1)c1ccc(F)cc1F (centres unmarked)

>  <limit.qualifier>
=

>  <MIC, C. glabrata 90030>
0.25

$$$$
>  <molecule>
C[C@@H](n1ncn(-c2ccc(N3CCN(c4ccc([N+](=O)[O-])cc4[N+](=O)[O-])CC3)cc2)c1=O)[C@@](O)(Cn1cncn1)c1ccc(F)cc1F

>  <limit.qualifier>
=

>  <MIC, C. glabrata 90030>
2.00

$$$$
>  <molecule>
C[C@@H](n1ncn(-c2ccc(N3CCN(c4ccc(F)cc4)CC3)cc2)c1=O)[C@](O)(Cn1cncn1)c1ccc(F)cc1F

>  <limit.qualifier>
=

>  <MIC, C. glabrata 90030>
0.25

$$$$
>  <molecule>
C[C@@H](n1ncn(-c2ccc(N3CCN(c4ccccc4)CC3)cc2)c1=O)[C@](O)(Cn1cncn1)c1ccc(F)cc1F

>  <limit.qualifier>
=

>  <MIC, C. glabrata 90030>
1.00

$$$$
>  <molecule>
COc1ccc(N2CCN(c3ccc(-n4cnn([C@H](C)[C@](O)(Cn5cncn5)c5ccc(F)cc5F)c4=O)cc3)CC2)cc1

>  <limit.qualifier>
=

>  <MIC, C. glabrata 90030>
0.50

$$$$
>  <molecule>
COc1ccc(F)cc1N1CCN(c2ccc(-n3c(C)nn([C@H](C)[C@@](O)(Cn4cncn4)c4ccc(F)cc4F)c3=O)cc2)CC1

>  <limit.qualifier>
=

>  <MIC, C. glabrata 90030>
4.00

$$$$
>  <molecule>
Cc1ccc(N2CCN(c3ccc(-n4cnn([C@H](C)[C@](O)(Cn5cncn5)c5ccc(F)cc5F)c4=O)cc3)CC2)cc1C

>  <limit.qualifier>
=

>  <MIC, C. glabrata 90030>
0.50

$$$$
>  <molecule>
C[C@@H](n1ncn(-c2ccc(N3CCN(c4ccc([N+](=O)[O-])cc4[N+](=O)[O-])CC3)cc2)c1=O)[C@](O)(Cn1cncn1)c1ccc(F)cc1F

>  <limit.qualifier>
=

>  <MIC, C. glabrata 90030>
0.25

$$$$
>  <molecule>
Cc1ccc(N2CCN(c3ccc(-n4cnn([C@H](C)[C@](O)(Cn5cncn5)c5ccc(F)cc5F)c4=O)cc3)CC2)cc1Cl

>  <limit.qualifier>
=

>  <MIC, C. glabrata 90030>
0.50

$$$$
>  <molecule>
O=c1n(-c2ccc(N3CCN(c4ccc(Cl)c(Cl)c4)CC3)cc2)cnn1CC(O)(Cn1cncn1)c1ccc(F)cc1F (centres unmarked)

>  <limit.qualifier>
=

>  <MIC, C. glabrata 90030>
0.12

$$$$
>  <molecule>
Cc1nn([C@H](C)[C@@](O)(Cn2cncn2)c2ccc(F)cc2F)c(=O)n1-c1ccc(N2CCN(c3cc(Cl)cc(Cl)c3)CC2)cc1

>  <limit.qualifier>
=

>  <MIC, C. glabrata 90030>
1.00

$$$$
>  <molecule>
O=c1n(-c2ccc(N3CCN(c4ccc(F)c(F)c4)CC3)cc2)cnn1CC(O)(Cn1cncn1)c1ccc(F)cc1F (centres unmarked)

>  <limit.qualifier>
=

>  <MIC, C. glabrata 90030>
0.25

$$$$
>  <molecule>
Cc1ccc(N2CCN(c3ccc(-n4cnn([C@H](C)[C@@](O)(Cn5cncn5)c5ccc(F)cc5F)c4=O)cc3)CC2)cc1C

>  <limit.qualifier>
=

>  <MIC, C. glabrata 90030>
2.00

$$$$

meta.source: patent US6670363B1
